assay-comment: Stability of compound in human liver microsomes assessed as half life at 10 uM preincubated for 5 mins in presence of NADPH regenerating system followed by microsomal addition and measured upto 60 mins by HPLC analysis
Format: ADME, Microsome
conditions-used: time 65 min
property-label: half-life at 10 µM (h)

> print(dat)
                                chem.smiles      property.label  unit  recorded.value
1  O=C(NCc1ccc(NS(=O)(=O)C2CC2)cc1C(F)(F)F)c1ccc2c(ccn2Cc2cccc(F)c2)c1  half-life at 10 µM     h            1.38
2  CC(C)Cn1ccc2cc(C(=O)NCc3ccc(NS(=O)(=O)C4CC4)cc3C(F)(F)F)ccc21  half-life at 10 µM     h            1.27
3  CS(=O)(=O)Nc1ccc(CNC(=O)c2ccc3c(ccn3Cc3cccc(F)c3)c2)c(C(F)(F)F)c1  half-life at 10 µM     h            1.68

* * *

assay-comment: Stability of compound in Sprague-Dawley rat liver microsomes assessed as half life at 10 uM preincubated for 5 mins in presence of NADPH regenerating system followed by microsomal addition and measured upto 60 mins by HPLC analysis
Type: ADME, Microsome
conditions-used: time 65 min
property-label: half-life at 10 µM (min)

> print(dat)
                                chem.smiles      property.label  recorded.value
1  CS(=O)(=O)Nc1ccc(CNC(=O)c2ccc3c(ccn3Cc3cccc(F)c3)c2)c(C(F)(F)F)c1  half-life at 10 µM              52
2  CC(C)Cn1ccc2cc(C(=O)NCc3ccc(NS(=O)(=O)C4CC4)cc3C(F)(F)F)ccc21  half-life at 10 µM              41
3  O=C(NCc1ccc(NS(=O)(=O)C2CC2)cc1C(F)(F)F)c1ccc2c(ccn2Cc2cccc(F)c2)c1  half-life at 10 µM              57

* * *

# pIC50 per record follows
measured-target: Bifunctional epoxide hydrolase 2 (Homo sapiens, UniProt P34913)
Sequence (P34913 whole entry): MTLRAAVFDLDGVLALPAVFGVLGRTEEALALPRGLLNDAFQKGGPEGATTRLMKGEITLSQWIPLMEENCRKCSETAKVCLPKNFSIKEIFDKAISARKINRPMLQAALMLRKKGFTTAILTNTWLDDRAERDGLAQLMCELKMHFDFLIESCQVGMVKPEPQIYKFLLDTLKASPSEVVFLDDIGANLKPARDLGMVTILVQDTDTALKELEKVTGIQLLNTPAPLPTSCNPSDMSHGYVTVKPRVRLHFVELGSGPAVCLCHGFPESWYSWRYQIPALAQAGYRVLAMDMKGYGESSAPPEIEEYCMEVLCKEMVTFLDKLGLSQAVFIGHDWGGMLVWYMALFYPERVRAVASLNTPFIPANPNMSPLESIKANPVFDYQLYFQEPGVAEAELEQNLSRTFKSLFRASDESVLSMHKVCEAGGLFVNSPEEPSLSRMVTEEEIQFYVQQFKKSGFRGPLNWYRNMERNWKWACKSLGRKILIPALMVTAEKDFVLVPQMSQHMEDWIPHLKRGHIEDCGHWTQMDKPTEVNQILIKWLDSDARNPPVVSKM
assay-comment: Inhibition of recombinant human full length sEH assessed as reduction in 6-methoxy-2-naphthaldehyde formation using PHOME as substrate preincubated for 30 to 45 mins followed by substrate addition and measured after 30 to 45 mins by fluorescence assay
pIC50: −log10 of the molar value.
property-label: pIC50

> print(dat)
                                chem.smiles  property.label  recorded.value
1  COc1ccccc1Cn1c(=O)[nH]c2cc(C(=O)NCc3ccccc3C(F)(F)F)ccc21           pIC50            6.50
2  O=C(NCc1ccccc1C(F)(F)F)c1ccc2c(c1)[nH]c(=O)n2Cc1ccccc1Cl           pIC50            6.77
3  O=C(NCc1ccccc1C(F)(F)F)c1ccc2c(c1)ncn2Cc1cccc(F)c1           pIC50            6.97
4  O=C(NCc1ccccc1C(F)(F)F)c1ccc2c(c1)[nH]c(=O)n2Cc1ccc(Cl)c(Cl)c1           pIC50            5.96
5  O=C(NCc1ccccc1C(F)(F)F)c1ccc2c(c1)[nH]c(=O)n2CC1CCCCC1           pIC50            6.49
6  COc1ccc(CNC(=O)c2ccc3c(c2)ncn3Cc2cccc(F)c2)c(C(F)(F)F)c1           pIC50            7.40
7  CS(=O)(=O)Cc1ccc(CNC(=O)c2ccc3c(ccn3Cc3cccc(F)c3)c2)c(C(F)(F)F)c1           pIC50            8.22
8  Nc1ccc(CNC(=O)c2ccc3c(ccn3Cc3cccc(F)c3)c2)c(C(F)(F)F)c1           pIC50            8.15
9  CC(C)n1ccc2cc(C(=O)NCc3ccc(NS(=O)(=O)C4CC4)cc3C(F)(F)F)ccc21           pIC50            8.30
